# study-system: EP2 subtype of the human PGE2 receptor (Homo sapiens)
# experimental-details: cAMP antagonism test on the human EP2 receptor (HTRF cAMP detection)
# Assay type: cell-based
# condition-parameters: hEP2 receptor, read-out: Antagonism hEP2 IC50
value-kind: pIC50
A value of pIC50 is the negative decimal logarithm of a concentration given in moles per litre.

- COCCNC(=O)c1ccc2nn(CC3CCN(C(=O)c4ccc(-c5ccc(OC)cc5)cc4F)CC3)cc2c1C: 8.32
- Cc1c(C(=O)NCCS(C)(=O)=O)ccc2nn(CC3CCN(C(=O)c4ccc(-c5ccc(F)cc5)cc4)CC3)cc12: 7.63
- COCCNC(=O)c1cc2cn(CC3CN(C(=O)c4ccc(Cl)cc4)C3)nc2cc1C: 7.17

// pIC50 lookup, key: COCCNC(=O)c1ccc2nn(CC3CCN(C(=O)c4nc(-c5ccccc5)no4)CC3)cc2c1C 7.66

// pIC50 lookup, key: Cc1c(C(=O)NCCOCC2CC2)ccc2nn(CC3CCN(C(=O)c4ccc(C(F)(F)F)cc4)CC3)cc12 7.62

// pIC50 lookup, key: Cc1ccc(C(=O)N2CCC(Cn3cc4c(C)c(C(=O)NCCOCC(F)(F)F)ccc4n3)CC2)cc1 7.69

// pIC50 lookup, key: Cc1c(C(=O)NCC2COCCO2)ccc2nn(CC3CCN(C(=O)c4ccc(Cl)cc4)CC3)cc12 (single isomer, unassigned) [Example 414] 6.65

====

# study-system: human PGD receptor (Homo sapiens, UniProt Q13258)
# Sequence (Q13258 whole entry): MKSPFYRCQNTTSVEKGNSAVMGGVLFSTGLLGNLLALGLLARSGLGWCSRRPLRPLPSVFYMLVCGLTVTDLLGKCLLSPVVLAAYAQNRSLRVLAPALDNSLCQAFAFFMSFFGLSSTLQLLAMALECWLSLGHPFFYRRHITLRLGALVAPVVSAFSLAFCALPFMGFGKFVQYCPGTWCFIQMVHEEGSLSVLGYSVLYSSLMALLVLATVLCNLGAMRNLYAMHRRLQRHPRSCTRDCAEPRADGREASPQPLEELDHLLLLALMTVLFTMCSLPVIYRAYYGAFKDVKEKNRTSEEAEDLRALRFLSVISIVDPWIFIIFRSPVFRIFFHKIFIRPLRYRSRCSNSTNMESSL
# experimental-details: cAMP antagonism test on the human prostaglandin D receptor (HTRF cAMP detection)
# Format: cell-based
# condition-parameters: selectivity towards hDP, IC50 measured by cAMP antagonism test
value-kind: Selectivity hEP2/hDP

* COCCNC(=O)c1cc2cn(CC3CN(C(=O)c4ccc(C(F)(F)F)cc4F)C3)nc2cc1C | xxx (xxx > 100)
* COCCNC(=O)c1ccc2nn(CC3CCN(C(=O)c4ccc(Oc5ccc(F)cc5)cc4)CC3)cc2c1OC(F)F | xxx (xxx > 100)
* Cc1c(C(=O)NCC(F)(F)F)ccc2nn(CC3CCN(C(=O)c4nc5ccccc5s4)CC3)cc12 | xxx (xxx > 100)
* Cc1cc2nn(CC3CCN(C(=O)c4ccc(C(F)(F)F)cc4F)CC3)cc2cc1C(=O)NCCN1CCOCC1 | xxx (xxx > 100)
* Cc1c(C(=O)NCC2CCCCO2)ccc2nn(CC3CCN(C(=O)c4ccc(Oc5ccc(C(F)(F)F)cc5)cc4)CC3)cc12 (single isomer, unassigned) [Example 417] | xxx (xxx > 100)
* COCCNC(=O)c1ccc2nn(CC3CCN(C(=O)c4ccc(Oc5cccc(F)c5)cc4)CC3)cc2c1C | xxx (xxx > 100)
* COCCNC(=O)c1ccc2nn(CC3CN(C(=O)c4ccc(Cl)c(C(F)(F)F)c4)C3)cc2c1C | xxx (xxx > 100)
* COc1ccc(-c2ccc(C(=O)N3CCC(Cn4cc5c(C)c(C(=O)NCC(F)(F)F)ccc5n4)CC3)cc2)cn1 | xxx (xxx > 100)

// Selectivity hEP2/hDP lookup, key: COCCNC(=O)c1ccc2nn(CC3CCN(C(=O)c4ccc(-c5ccno5)cc4)CC3)cc2c1C xxx (xxx > 100)

// Selectivity hEP2/hDP lookup, key: COCCNC(=O)c1ccc2nn(CC3CCN(C(=O)c4ccc(OC(F)F)cc4F)CC3)cc2c1C xxx (xxx > 100)

// Selectivity hEP2/hDP lookup, key: COCCNC(=O)c1cc2cn(CC3CCN(C(=O)c4ccc(C(F)(F)F)cc4F)CC3)nc2cc1C xxx (xxx > 100)

// Selectivity hEP2/hDP lookup, key: Cc1cc2nn(CC3CN(C(=O)c4ccc(OC(F)(F)F)cc4)C3)cc2cc1C(=O)NCCN1CCOCC1 xxx (xxx > 100)

// Selectivity hEP2/hDP lookup, key: COCCNC(=O)c1ccc2nn(CC3CN(C(=O)c4ccc(Cl)cc4F)C3)cc2c1C xxx (xxx > 100)

====

// values below are reported pIC50
# study-system: EP2 subtype of the human PGE2 receptor (Homo sapiens, UniProt P43116)
# Sequence (P43116 whole entry): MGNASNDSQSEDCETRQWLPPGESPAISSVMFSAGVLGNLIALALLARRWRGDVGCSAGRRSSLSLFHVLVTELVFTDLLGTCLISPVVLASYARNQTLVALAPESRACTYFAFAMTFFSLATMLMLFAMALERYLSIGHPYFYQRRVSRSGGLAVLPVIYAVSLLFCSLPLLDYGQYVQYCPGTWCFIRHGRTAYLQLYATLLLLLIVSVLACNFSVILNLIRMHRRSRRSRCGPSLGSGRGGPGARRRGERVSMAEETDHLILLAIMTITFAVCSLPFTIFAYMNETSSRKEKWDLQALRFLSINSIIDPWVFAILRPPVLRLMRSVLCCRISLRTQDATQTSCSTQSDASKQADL
# experimental-details: cAMP antagonism test on the human EP2 receptor (HTRF cAMP detection)
# Format: cell-based
# condition-parameters: hEP2 receptor, read-out: Antagonism hEP2 IC50
A value of pIC50 is the negative decimal logarithm of a concentration given in moles per litre.

// below: answered compounds
* COCCNC(=O)c1ccc2nn(CC3CCN(C(=O)c4ccc(Oc5ccc(F)cc5)cc4)CC3)cc2c1OCC(F)(F)F | 7.40
* COCCNC(=O)c1ccc2nn(CC3CN(C(=O)c4ccc(C(F)(F)F)cc4F)C3)cc2c1C | 7.81
* Cc1c(C(=O)NCC(F)(F)F)ccc2nn(CC3CCN(C(=O)c4ccc(Oc5ccc(C(F)(F)F)cn5)cc4)CC3)cc12 | 7.61
* Cc1cc2nn(CC3CCN(C(=O)c4ccc(Oc5ccc(F)cc5)cc4)CC3)cc2cc1C(=O)NCCN1CCOCC1 | 7.50
* Cc1c(C(=O)NCCN2CCOCC2)ccc2nn(CC3CCN(C(=O)c4ccc(OC(F)(F)F)cc4)CC3)cc12 | 6.12

// pIC50 lookup, key: Cc1c(C(=O)NCC2CCC2)ccc2nn(CC3CCN(C(=O)c4ccc(Cl)cc4)CC3)cc12 7.51

// pIC50 lookup, key: Cc1c(C(=O)NCC(F)(F)F)ccc2nn(CC3CN(C(=O)c4ccc(S(F)(F)(F)(F)F)cc4)C3)cc12 6.96

====

# study-system: UniProtKB P43116
# experimental-details: cAMP antagonism test on the human EP2 receptor (HTRF cAMP detection)
# Type: cell-based
# condition-parameters: hEP2 receptor, read-out: Antagonism hEP2 IC50
value-kind: pIC50
A value of pIC50 is the negative decimal logarithm of a concentration given in moles per litre.

* COCCNC(=O)c1ccc2nn(CC3CCN(C(=O)c4ccc(-c5ccc(C(C)(C)O)cc5)cc4)CC3)cc2c1C [Example 388] | 7.69

Lab note: next molecule to report on.
// pIC50 lookup, key: COc1ccc2cc(C(=O)N3CC(Cn4cc5c(C)c(C(=O)NCC(F)(F)F)ccc5n4)C3)n(C)c2c1 [Example 169] 7.56

====

# study-system: EP2 subtype of the human PGE2 receptor (Homo sapiens)
# experimental-details: cAMP antagonism test on the human EP2 receptor (HTRF cAMP detection)
# Type: cell-based
# condition-parameters: hEP2 receptor, read-out: Antagonism hEP2 IC50
pIC50: −log10 of the molar value.
Decision: pIC50 compared against 8; not below it gives Fulfilled, below it gives Not fulfilled.

Illustrative cases are given below, each with its answer.
- COCCNC(=O)c1ccc2nn(CC3CN(C(=O)c4cc5ccc(OC)cc5n4C)C3)cc2c1C: Fulfilled
- COCCNC(=O)c1ccc2nn(CC3CCN(C(=O)c4ccc(OC(F)F)cc4)CC3)cc2c1C: Fulfilled
- COCCNC(=O)c1ccc2nn(CC3CCN(C(=O)c4cccc(Cl)c4)CC3)cc2c1C: Not fulfilled
- COCCNC(=O)c1ccc2nn(CC3CCN(C(=O)c4ccc(C5CCCCC5)cc4)CC3)cc2c1C: Fulfilled
- Cc1c(C(=O)NCC(F)(F)F)ccc2nn(CC3CCN(C(=O)c4ccc(Oc5cccc(C(F)(F)F)n5)cc4)CC3)cc12: Not fulfilled

Please tell me: is the molecule Cc1c(C(=O)NCCN2CCC(F)(F)C2)ccc2nn(CC3CCN(C(=O)c4ccc(SC(F)(F)F)cc4)CC3)cc12 at or over 8 in terms of pIC50? Not fulfilled

Please tell me: is the molecule Cc1c(C(=O)NCC(F)(F)F)ccc2nn(CC3CCN(C(=O)c4ccc(Oc5ccc(C#N)cc5)cc4)CC3)cc12 at or over 8 in terms of pIC50? Not fulfilled

Please tell me: is the molecule Cc1c(C(=O)NCC(C)(C)C)ccc2nn(CC3CCN(C(=O)c4ccc(Oc5ccc(C(F)(F)F)cc5)cc4)CC3)cc12 at or over 8 in terms of pIC50? Not fulfilled

Please tell me: is the molecule COCCNC(=O)c1ccc2nn(CC3CN(C(=O)c4ccc(Br)cc4)C3)cc2c1OC at or over 8 in terms of pIC50? Not fulfilled

Please tell me: is the molecule Cc1c(C(=O)NCC2CCO2)ccc2nn(CC3CCN(C(=O)c4ccc(Cl)cc4)CC3)cc12 (racemic) at or over 8 in terms of pIC50? Not fulfilled

====

# study-system: EP2 subtype of the human PGE2 receptor (Homo sapiens)
# experimental-details: cAMP antagonism test on the human EP2 receptor (HTRF cAMP detection)
# Type: cell-based
# condition-parameters: hEP2 receptor, read-out: Antagonism hEP2 IC50
pIC50: −log10 of the molar value.
Decision: pIC50 compared against 8; not below it gives YES, below it gives NO.

Illustrative cases are given below, each with its answer.
* COCCNC(=O)c1cc2cn(CC3CN(C(=O)c4ccc(Cl)c(C(F)(F)F)c4)C3)nc2cc1C | NO
* Cc1c(C(=O)NCC(F)(F)F)ccc2nn(CC3CCN(C(=O)c4ccc(Oc5ccc(F)c(F)c5)cc4)CC3)cc12 | NO
* COCCNC(=O)c1ccc2nn(CC3CCN(C(=O)c4ccc(-c5ccc(F)cc5OC)cc4)CC3)cc2c1C | YES
* Cc1c(C(=O)NCCN2CCOCC2)ccc2nn(CC3CCN(C(=O)c4ccc(Cl)cc4)CC3)cc12 | NO
* COCCNC(=O)c1ccc2nn(C[C@@H]3CCN(C(=O)c4ccc(Cl)cc4)C3)cc2c1C | NO
* Cc1ccc(-c2ccc(C(=O)N3CCC(Cn4cc5c(C)c(C(=O)NCC(F)(F)F)ccc5n4)CC3)cc2)cn1 | NO
* O=C(NCCOCC1CC1)c1ccc2nn(CC3CCN(C(=O)c4ccc(-c5ccc(F)cc5)cc4)CC3)cc2c1OCC(F)(F)F | NO
* COCCNC(=O)c1cc2cn(CC3CCN(C(=O)c4ccc(C(F)(F)F)cc4)CC3)nc2cc1C | NO
* COCCNC(=O)c1ccc2nn(CC3CCN(C(=O)c4ccc(-c5ccc(C)c(C)c5)cc4F)CC3)cc2c1C | YES
* COC(C)CNC(=O)c1ccc2nn(CC3CN(C(=O)c4ccc(Cl)cc4)C3)cc2c1C (single isomer, unassigned) [Example 139] | NO

Please tell me: is the compound COCCNC(=O)c1ccc2nn(CC3CN(C(=O)c4cn(C)c5ccccc45)C3)cc2c1C at or over 8 in terms of pIC50? NO

Please tell me: is the compound COCCNC(=O)c1cc2cn(CC3CCN(C(=O)c4cn(C)c5ccccc45)CC3)nc2cc1C at or over 8 in terms of pIC50? NO

Please tell me: is the compound Cc1c(C(=O)NCCOC(F)(F)F)ccc2nn(CC3CCN(C(=O)c4ccc(Oc5ccc(C(F)(F)F)cc5)cc4)CC3)cc12 at or over 8 in terms of pIC50? YES

Please tell me: is the compound COCCNC(=O)c1ccc2nn(CC3CCN(C(=O)c4cccc(C)c4)CC3)cc2c1C at or over 8 in terms of pIC50? NO

Please tell me: is the compound COCCNC(=O)c1cc2cn(CC3CN(C(=O)c4ccc(C(F)(F)F)cc4F)C3)nc2cc1C at or over 8 in terms of pIC50? NO

Please tell me: is the compound COCCNC(=O)c1ccc2nn(CC3CCN(C(=O)c4ccc(-n5ccnc5)cc4)CC3)cc2c1C at or over 8 in terms of pIC50? NO

Please tell me: is the compound CCOCCNC(=O)c1ccc2nn(CC3CN(C(=O)c4ccc(Cl)cc4)C3)cc2c1OC at or over 8 in terms of pIC50? NO

Please tell me: is the compound COCCNC(=O)c1ccc2nn(CC3CCN(C(=O)c4ccc(-c5cc(F)cc(F)c5)cc4)CC3)cc2c1C at or over 8 in terms of pIC50? YES

Please tell me: is the compound Cc1c(C(=O)NCC(F)(F)F)ccc2nn(CC3CCN(C(=O)c4cc5ccccc5n4C)CC3)cc12 at or over 8 in terms of pIC50? NO

Please tell me: is the compound COCCNC(=O)c1ccc2nn(CC3CCN(C(=O)c4ccc(-c5cnco5)cc4)CC3)cc2c1C at or over 8 in terms of pIC50? NO

Please tell me: is the compound Cc1c(C(=O)NCC2COCCO2)ccc2nn(CC3CCN(C(=O)c4ccc(Cl)cc4)CC3)cc12 (racemic) [Example 413] at or over 8 in terms of pIC50? NO
